For each entry below, report its pIC50 value.
target: T1, TEAD
T1 chain: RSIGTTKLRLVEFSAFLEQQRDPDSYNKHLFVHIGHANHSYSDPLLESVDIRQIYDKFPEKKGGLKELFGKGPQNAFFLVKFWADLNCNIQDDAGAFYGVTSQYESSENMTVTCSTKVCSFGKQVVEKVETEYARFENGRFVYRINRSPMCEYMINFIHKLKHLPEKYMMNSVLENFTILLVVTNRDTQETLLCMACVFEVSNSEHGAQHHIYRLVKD
assay explanation: IC50 for TEAD binding; method not named in the example (TR-FRET test is the filing's screening method)
Positions of bridges follow the written chain, without caps; N, C: chain ends. Non-standard residues stand in square brackets, D forms with d. No end group written: not given here. hCys = N[C@@H](CCS)C(=O)O
Here pIC50 is given on a logarithmic scale as minus log10 of the concentration in mol/L.

Exam item: What does the data say about its pIC50? Entry: VPMCLRKLPESFCHPPE (disulfide 4-13) [polypeptide of SEQ ID NO.: 8 (VPMCLRKLPESFCHPPE)]
Marked response: 7.55

Exam item: What does the data say about its pIC50? Entry: VPM[hCys]LRKLPCSFCDPPE (disulfide 4-13) [polypeptide of SEQ ID NO.: 9 (VPM(Hcy)LRKLPCSFCDPPE)]
Marked response: 7.60
